Reference for the values: patent US8008547B2

Provide the reported Km of each item.
# Protocol Notes: Standard protocol for determination of kcat and KM (continuous spectrophotometric assay, Acetyl CoA hydrolysis at 235 nm)
# Assay type: biochemical
# Condition Label: purified protein; about 23° C.; pH 6.8; 0.2 mM acetyl CoA; glyphosate 0.125 to 10 mM
Numbers only, in µM.

>  <Molecule>
SEQ ID NO: 340: GAT polypeptide (protein, 15F5, GAT polypeptide) MIEVKPINAEDTYEIRHRILRPNQPLEACKYETDLLGGTFHLGGYYRGKLISIASFHKAEHSELEGEEQYQLRGMATLEGYREQKAGSTLIRYAEELLRKKGADLLWCNARTSVSGYYKKLGFSEQGEVYDIPPIGPHILMYKKLT

>  <Km [µM]>
2900

$$$$
>  <Molecule>
SEQ ID NO: 346: GAT polypeptide (protein, 19D5, GAT polypeptide) MIEVKPINAEDTYEIRHCILRPNQPLEACMYETDLLGGTFHLGGYYQGKLISIASFHKAEHSELEGQKQYQLRGMATLEGYREQKAGSTLIRHAEELLRKKGADLLWCNARTSVSGYYKKLGFSEQGEVYDIPPIGPHILMYKKLT

>  <Km [µM]>
1700

$$$$

Batch lookup, Km per entry.
1. SEQ ID NO: 510: GAT polypeptide (protein, GAT1_29G1, GAT polypeptide) MIEVKPINAEDTYEIRHRILRPNQPLEACMYETDLLGGTFHLGGYYRGKLISIASFHQAEHSELEGQKQYQLRGMATLEGYREQKAGSTLIRHAEELLRKKGADLLWCNARTSVSGYYKKLGFSEQGGVCDIPPIGPHILMYKKLA
2. SEQ ID NO: 422: GAT polypeptide (protein, 9_13F1, GAT polypeptide) MIEAKPINAEDTYEIRHRILRPNQPLEACMYETDLLGGTFHLGGYYRGKLVSIASFHQAEHTELEGQKQYQLRGMATLEEYREQKAGSTLIRHAEELLRKKGADLLWCNARTSASGYYKKLGFSEQGEVYDIPPVGPHILMYKKLT
3. SEQ ID NO: 300: GAT polypeptide (protein, 13_6D10, GAT polypeptide) MIEVKPINAEDTYEIRHRILRPNQPLEACMYETDSLGGTFHLGGYYRGKLISIASFNQAEHPELEGQKQYQLRGMATLEGYREQKAGSTLIRHAEELLRKKGADLLWCNARTSASGYYKKLGFSEQGEVYDTPPVGPHILMYKKLT
4. SEQ ID NO: 270: GAT polypeptide (protein, 10_15F4, GAT polypeptide) MIEVKPINAEDTYEIRHRILRPNQPLEACMYETDLLRGTFHLGGYYRGKLVSIASFHQAEHPELEGQKQYQLRGMATLEEYREQKAGSTLIRHAEELLRKKGADLLWCNARTSASGYYKKLGFSEQGGVYDIPPVGPHILMYKKLT

4000
1100
650
1000
